Data origin, for the record: patent US12624028B2

biological target: NL20 human bronchial epithelial cells expressing human Z-AAT (Homo sapiens, UniProt P01009, E366K); assay: AAT Function Assay (MSD Assay NL20-SI Cell Line); details: functionally active AAT (AAT-hNE complex, MSD) from NL20 cells expressing human Z-AAT; read-out: NL20 Functional EC50
Sequence (P01009 25-418 E366K): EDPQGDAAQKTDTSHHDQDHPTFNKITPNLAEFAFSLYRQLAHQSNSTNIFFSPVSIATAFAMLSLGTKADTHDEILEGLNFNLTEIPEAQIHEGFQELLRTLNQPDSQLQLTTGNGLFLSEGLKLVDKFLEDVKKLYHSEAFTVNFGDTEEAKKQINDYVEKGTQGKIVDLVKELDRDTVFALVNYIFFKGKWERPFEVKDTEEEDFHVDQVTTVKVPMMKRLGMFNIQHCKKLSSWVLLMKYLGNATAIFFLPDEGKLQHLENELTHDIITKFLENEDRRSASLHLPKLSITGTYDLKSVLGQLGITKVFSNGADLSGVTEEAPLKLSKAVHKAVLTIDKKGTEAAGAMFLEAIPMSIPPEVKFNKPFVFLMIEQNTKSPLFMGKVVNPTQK
Catalogue of EC50 values

Consider the worked cases shown below.
[
  {
    "SMILES": "COc1cc(-c2nc(C(C)C)c(-c3ccc(F)cc3)c3cc4cn[nH]c4cc23)c(F)cc1C(=O)O",
    "EC50": "< 1.16 µM"
  },
  {
    "SMILES": "Cc1cc(-c2c(C3CCOCC3)nc(Oc3ccc(P(C)(C)=O)cc3)c3cc4[nH]ncc4cc23)ccn1",
    "EC50": "> 3 µM"
  },
  {
    "SMILES": "CC(C)c1c(-c2ccc(C(=O)O)cc2)nc2cc3[nH]ncc3cc2c1-c1ccccc1F",
    "EC50": "1.16 to 3 µM"
  },
  {
    "SMILES": "O=C(O)c1ccc(-c2nc3cc4[nH]ncc4cc3c(-c3ccc(F)cc3)c2C2CCOCC2)c(F)c1",
    "EC50": "> 3 µM"
  },
  {
    "SMILES": "COc1cc(C(=O)O)ccc1Oc1nc(C2CCOCC2)c(-c2ccc(F)cc2)c2cc3cn[nH]c3cc12",
    "EC50": "< 1.16 µM"
  },
  {
    "SMILES": "COc1cc(C(=O)O)ccc1-c1nc(C(C)C)c(-c2ccc(F)cc2)c2cc3cn[nH]c3cc12",
    "EC50": "< 1.16 µM"
  },
  {
    "SMILES": "Cc1cc(-c2c(C3CCOCC3)nc(Oc3ccc(C(=O)O)c(F)c3F)c3cc4[nH]ncc4cc23)ccn1",
    "EC50": "> 3 µM"
  },
  {
    "SMILES": "CC(C)c1c(-c2ccc(F)c(F)c2)c2cc3cn[nH]c3cc2c(=O)n1[C@@H]1CC[C@@H]1C(=O)O",
    "EC50": "> 3 µM"
  }
]

Let us examine a further case.
Notebook: COc1ccc(-c2c(C(C)C)c(O[C@H]3C[C@@H](C(=O)O)C3)nc3cc4[nH]ncc4cc23)cc1 , EC50 read as > 3 µM

* * *

# reported EC50; entries follow
target: NL20 human bronchial epithelial cells expressing human Z-AAT (Homo sapiens, UniProt P01009, E366K); assay: AAT Function Assay (MSD Assay NL20-SI Cell Line); conditions: functionally active AAT (AAT-hNE complex, MSD) from NL20 cells expressing human Z-AAT; read-out: NL20 Functional EC50

[
  {
    "COMPOUND": "COc1cc(C(=O)O)ccc1C1Nc2cc3[nH]ncc3cc2C(c2ccc(F)cc2)=C1N(C)C (stereo not drawn)",
    "READOUT": "EC50",
    "TEST_VALUE": "< 1.16 µM"
  },
  {
    "COMPOUND": "Cc1cc(-c2c(C(C)C)c(-c3ccc(C(=O)O)cc3)nc3cc4[nH]ncc4cc23)ccn1",
    "READOUT": "EC50",
    "TEST_VALUE": "> 3 µM"
  }
]

In the following, a different compound is considered.
# EC50 of CC(C)c1c(OC2CN(S(C)(=O)=O)C2)nc2cc3[nH]ncc3cc2c1-c1ccc(F)cc1 = > 3 µM
